studyTarget: Soybean (Glycine max) protoporphyrinogen oxidase (PPO), wild type
testDescription: PPO enzyme assay (plastid extract)
recordedConditions: 3 μM protogen; pH 7.4, 30° C.; read-out: S-3100 IC50
metricName: IC50 (nM)
Provide only the numeric value, understood in nM.

Recorded IC50 (compound CCOC(=O)COc1ncccc1Oc1cc(-n2c(=O)cc(C(F)(F)F)n(C)c2=O)c(F)cc1Cl [S-3100] ): 4

====

studyTarget: H_N70 (SEQ ID NO: 8), microbial HemG protoporphyrinogen oxidase (Pantoea phytostimulans)
Sequence (A0ACH3N612 entry or part of it): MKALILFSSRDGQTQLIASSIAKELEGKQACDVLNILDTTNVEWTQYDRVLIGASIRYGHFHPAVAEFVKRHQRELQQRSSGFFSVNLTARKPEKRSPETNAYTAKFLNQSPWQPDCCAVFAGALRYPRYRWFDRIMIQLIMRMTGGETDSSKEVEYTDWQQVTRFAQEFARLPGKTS
pIC50: −log10 of the molar value.
metricName: pIC50

Recorded pIC50 (compound CCOC(=O)COc1ncccc1Oc1cc(-n2c(=O)cc(C(F)(F)F)n(C)c2=O)c(F)cc1Cl ): < 4.00
